Biological target: T1, human B-cell maturation antigen (BCMA) on cells (human, UniProt Q02223 1-184)
T1 construct: Recombinant on HEK293 or K562 cells, or endogenous on cell lines (H929, RPMI 8226, OPM2, MM1S, Daudi); also called hBCMA; huBCMA
T1 chain: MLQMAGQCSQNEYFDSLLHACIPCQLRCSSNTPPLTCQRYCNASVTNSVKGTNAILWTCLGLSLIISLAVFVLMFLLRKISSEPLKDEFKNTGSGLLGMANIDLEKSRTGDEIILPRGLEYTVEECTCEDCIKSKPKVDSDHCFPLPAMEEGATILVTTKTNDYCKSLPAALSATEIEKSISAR
Assay: flow cytometry on BCMA-expressing HEK293 cells vs control cells, crude lysate or bacterial supernatant; clone listed in Table E2
MEASUREMENT_LABEL: binding result

Record BCMA-32 scFv (scFv) scFv: QVQLVESGGGLVKPGGSLRLSCAASGFTFSDYYMSWIRQAPGKGLEWVSYISSSGSTIYYADSVKGRFTISRDNAKNSLYLQMNSLRAEDTAVYYCAKVDGPPSFDIWGQGTMVTVSSGGGGSGGGGSGGGGSQTVVTQPPSVSVAPGQTARITCGGNNIGSKGVHWYRQRPGQAPEVVIYDDSDRPSGVPDRFSGSNSGNTATLTVRGVEAGDEADYYCQVWDSSSDHWVFGGGTKLTVL . Reported binding result: binds

Measured binding result of BCMA-2 scFv (scFv) scFv: EVQLVESGGGLVKPGGSLRLSCAASGFTFSDYYMSWIRQAPGKGLEWVSYISSSGSTIYYADSVKGRFTISRDNAKNSLYLQMNSLRAEDTAVYYCAKVDGPPSSDIWGQGTMVTVSSGGGGSGGGGSGGGGSEIVMTQSPATLSVSPGETATLSCRASQSIKTNLAWYQQKPGQAPRLLIYAASTRATGIPDRFSGSGSGTDFTLTITRLEPEDFAVYYCQQYGSSPTFGRGTKLEIK : binds

binder BCMA-12 scFv (scFv) scFv: EVQLVESGGGLVKPGGSLRLSCAASGFTFSDYYMSWIRQAPGKGLEWVSYISSSGSTIYYADSVKGRFTISRDNAKNSLYLQMNSLRAEDTAVYYCAKVDGPPSFDIWGQGTMVTVSSGGGGSGGGGSGGGGSQSALTQPPSVSAAPGQKVTISCSGSRSNIGNNYVSWYQQLPGTAPKLLIYDNAKRPSGIPDRFSGSKSGTSATLDIAGLQTGDEADYYCQVWDSSSDHWVFGGGTKLTVL , binding result observed: binds
